target: UniProtKB P19320; assay: In vitro inhibitory potency compared to IL1-beta induced VCAM-1 expression in human endothelial cells (ELISA assay)
Sequence (P19320 whole entry): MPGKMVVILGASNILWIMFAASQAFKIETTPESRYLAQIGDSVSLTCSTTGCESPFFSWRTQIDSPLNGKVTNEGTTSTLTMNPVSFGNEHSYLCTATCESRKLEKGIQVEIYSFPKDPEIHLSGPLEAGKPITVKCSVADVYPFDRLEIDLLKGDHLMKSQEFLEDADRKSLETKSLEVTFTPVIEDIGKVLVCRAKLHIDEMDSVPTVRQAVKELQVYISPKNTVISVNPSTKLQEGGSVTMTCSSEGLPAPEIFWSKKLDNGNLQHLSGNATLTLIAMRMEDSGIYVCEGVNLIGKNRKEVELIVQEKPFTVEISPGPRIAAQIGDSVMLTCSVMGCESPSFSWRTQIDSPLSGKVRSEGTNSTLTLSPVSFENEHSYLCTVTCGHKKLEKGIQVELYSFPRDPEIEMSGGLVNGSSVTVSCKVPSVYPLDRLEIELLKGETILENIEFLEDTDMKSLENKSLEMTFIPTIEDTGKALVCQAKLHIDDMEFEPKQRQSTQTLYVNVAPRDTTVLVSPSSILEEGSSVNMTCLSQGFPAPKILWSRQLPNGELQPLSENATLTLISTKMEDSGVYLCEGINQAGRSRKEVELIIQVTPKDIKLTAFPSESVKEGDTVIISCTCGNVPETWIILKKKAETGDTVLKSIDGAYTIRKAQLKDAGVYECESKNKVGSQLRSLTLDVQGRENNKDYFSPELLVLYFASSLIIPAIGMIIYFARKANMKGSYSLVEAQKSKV

>  <chem.smiles>
CNC(=O)c1cc2c(Oc3ccc(Cl)cc3)cncc2s1

>  <assayed.system>
UniProtKB P19320

>  <IC50>
70 nM

$$$$

====

assay: Inhibition of VCAM-1 in human endothelial cells
Below is a list of entries, each paired with its recorded IC50 value.
result.type: IC50

>  <molecule>
NC(=O)c1cc2c(Oc3ccc(/C=C/C(=O)NCC(O)CO)cc3)cncc2s1 (stereo not given)

>  <result.type>
IC50

>  <observed.value>
> 1 µM

$$$$
>  <molecule>
NC(=O)c1cc2c(Oc3ccc(COC4CCCCO4)cc3)cncc2s1 (stereo not given)

>  <result.type>
IC50

>  <observed.value>
> 1 µM

$$$$
>  <molecule>
CNC(=O)c1cc2c(Oc3ccc(/C=C/C(=O)NCC(O)CO)cc3)cncc2s1 (stereo not given)

>  <result.type>
IC50

>  <observed.value>
> 1 µM

$$$$
>  <molecule>
CNC(=O)c1cc2c(Oc3ccc(COCCOCCOC)cc3)cncc2s1

>  <result.type>
IC50

>  <observed.value>
0.12 µM

$$$$
>  <molecule>
CNC(=O)c1cc2c(Oc3ccc(/C=C/C(=O)NCCN4CCOCC4)cc3)cncc2s1

>  <result.type>
IC50

>  <observed.value>
> 1 µM

$$$$
>  <molecule>
CNC(=O)c1cc2c(Oc3ccc(-c4noc(C(F)(F)F)n4)cc3)cncc2s1

>  <result.type>
IC50

>  <observed.value>
> 1 µM

$$$$
>  <molecule>
COCc1ccc(Oc2cncc3sc(C(N)=O)cc23)cc1

>  <result.type>
IC50

>  <observed.value>
0.023 µM

$$$$
>  <molecule>
NC(=O)c1cc2c(Oc3ccc(Cl)c(F)c3)cncc2s1

>  <result.type>
IC50

>  <observed.value>
> 1 µM

$$$$
>  <molecule>
CNC(=O)c1cc2c(Oc3ccc(C(=O)NCCN4CCOCC4)cc3)cncc2s1

>  <result.type>
IC50

>  <observed.value>
> 1 µM

$$$$
>  <molecule>
NC(=O)c1cc2c(Oc3ccc(/C=C/C(=O)NCCN(CCO)CCO)cc3)cncc2s1

>  <result.type>
IC50

>  <observed.value>
> 1 µM

$$$$
